Reference source for all entries: PubChem BioAssay

Experiment: TLR3 IRF3 reporter activation blockers – cell-based, poly I:C stimulus, luciferase, 10K MLSCN set, primary screen (AID 602277)
Conditions: HEK293-TLR3 RL24 IRF3 luciferase reporter, at 10 µM, stronger effect = higher value
Response key: met means inhibition >= 20%; not met means inhibition < 20%.

{"molecule": "COc1ccc(N2Cc3ccccc3C2)cc1Cl", "assigned.label": "not met"}

Alright, here's another molecule for you.
Does the reported inhibition for CCOC(=O)CC1=C(C(=O)OCC)C(c2ccc(C)o2)C(C#N)=C(N)O1 (stereo not drawn) fall at or above the 20% mark? not met

====

Experiment: inhibitors of TNFa-induced NFkB p65 translocation, primary screen, imaging, HUVEC, MLSMR starter and 10KST1 sets (AID 438);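 also: compound added about 3h40 before a 20 min TNFalpha stimulation; signal is the nuclear over cytoplasmic p65 intensity ratio per well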
Conditions: HUVEC TNFa-induced p65 nuclear translocation; at 2 µM, stronger effect = higher value, 0% TNFa-plus-vehicle, 100% no-TNFa wells
readout.type: inhibition (%)
One number for each entry, in %.

Worked cases, inhibition given:
{"compound": "COc1ccccc1OCCSc1nc2ccccc2c(=O)[nH]1", "reading.unit": "%", "inhibition": 3.5}
{"compound": "O=C(O)c1ccc(-c2ccc(O)c(F)c2)cc1", "reading.unit": "%", "inhibition": 1.3}
{"compound": "O=C(CSc1ncnc2c1oc1ccccc12)Nc1ccccc1F", "reading.unit": "%", "inhibition": -13.5}

Could I get inhibition for every one of these entries?
1. COC(=O)C(C)Sc1nc2c(c(=O)n1-c1ccccc1)SCC2 (stereo unspecified)
2. Cn1c(Cc2ccccc2)nnc1SCC(=O)c1ccc(Br)s1

-1.4
0.4

Could I get inhibition for every one of these entries?
1. O=C(CNC(=O)c1ccccc1C(=O)O)c1ccccc1
2. CCCn1nc(NC(=O)c2cccs2)c2cc3cc(OC)ccc3nc21

[1.8, -6.8]

Could I get inhibition for every one of these entries?
1. C=CCN1C(=O)C2(C(C#N)=C(N)Oc3n[nH]c(CCC)c32)c2ccccc21 (stereo unspecified)
2. C=CCNC(=O)CSc1nc2sc(C)c(C)c2c(=O)[nH]1
3. O=C1Nc2ccccc2OC1CC(=O)N1CCCC1 (stereo unspecified)
4. Cn1c(=O)c(=O)n(C)c2cc(S(=O)(=O)N3CCN(c4cccc(C(F)(F)F)c4)CC3)ccc21

1: 3.2; 2: -3.4; 3: -6.6; 4: -2.2

====

Assay: reduction of polyQ htt aggregates in cells – imaging, exon1htt(103Q)mCFP cells, high-content imaging, primary screen (AID 483);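 also: compound exposure lasted 3 days before fixation; percent of the per-plate median nuclei count of sample wells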
Conditions: exon1htt(103Q)mCFP cell line, aggregate imaging, at 2 µM; measured here: cell count, toxicity
readout.type: nuclei count (%)
One number for each entry, in %.

{"compound": "CCC(Sc1nc2sc(C(=O)OC)c(C)c2c(=O)n1N)C(=O)NCC1CCCO1 (centres undefined)", "reported": 117}
{"compound": "CCOC(=O)N1CCN(C(=O)CN2C(=O)COc3ccc(C)cc32)CC1", "reported": 98.6}
{"compound": "Cc1c(-n2c(CN3C(=O)c4ccccc4C3=O)nc3ccccc3c2=O)c(=O)n(-c2ccccc2)n1C", "reported": 115}
{"compound": "CCOCCCNC(=O)c1ccc2c(c1)N(Cc1ccccc1)C(=O)CS2=O (centres undefined)", "reported": 94.2}
{"compound": "COC(=O)C(C)Sc1nc2c(c(=O)n1-c1ccccc1)SCC2 (centres undefined)", "reported": 113}
{"compound": "CN1CCN(CC(=O)N2c3ccccc3C(C)(c3ccccc3)CC2(C)C)CC1 (centres undefined)", "reported": 74.1}
{"compound": "CCOc1ccccc1CN(Cc1ccco1)S(=O)(=O)c1ccc(-n2cnnn2)c(OC)c1", "reported": 99.8}
{"compound": "CSCSC1=C(C#N)C(c2ccc(Cl)cc2)C(C(C)=O)=C(C)N1 (centres undefined)", "reported": 112}

Value of measured nuclei count for the entry CCCCCc1c(C)nc(SCC(=O)O)[nH]c1=O : 97.3
